Value source: patent US20240228562A1

- experimentalTarget: T1, Murine CTGF (Mus musculus, UniProt P29268)
- T1 construct: purchased Abbexa
- T1 sequence (P29268 26-348): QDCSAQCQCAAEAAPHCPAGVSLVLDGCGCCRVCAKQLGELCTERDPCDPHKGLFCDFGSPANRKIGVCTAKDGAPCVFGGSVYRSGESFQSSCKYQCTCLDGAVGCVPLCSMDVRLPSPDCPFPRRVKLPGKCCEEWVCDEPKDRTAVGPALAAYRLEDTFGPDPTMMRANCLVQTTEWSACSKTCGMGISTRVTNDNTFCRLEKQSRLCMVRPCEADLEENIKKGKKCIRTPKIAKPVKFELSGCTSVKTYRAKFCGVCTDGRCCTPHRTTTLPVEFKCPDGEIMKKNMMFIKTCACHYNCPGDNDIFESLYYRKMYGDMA
- test: SPR binding kinetics and affinity, murine CTGF
- Design: key: B binding without determination of kinetics constants
- measurementConditions: 25° C., 1:1 binding model
assayReadout: Murine CTGF koff

Looking up SEQ ID NO: 6: optimized CTGF-binding hNGAL lipocalin mutein (protein, lipocalin mutein) QDSTSDLIPAPPLSKVPLQQNFQDNQFQGKWYVVGRAGNNQLREDKSPPKMWATIYELKEDKSYDVTHVHFSTKKCRYIIDTFVPGSQPGEFTAGAIKSGPGLTSPLVRVVSTNYNQHAMVFFKWVTQNREWFTITLYGRTKELTSELKENFIRFSKSLGLPENHIVFPVPIDQCIDG , I found its Murine CTGF koff recorded as B
